Answer each item with its documented Kd.
Target: T1, human programmed cell death protein 1 (hPD-1) C93S (aa 24-167) (Homo sapiens, UniProt Q15116, C93S)
T1 construct: made as a fusion with a TEV site and human Fc; the Fc was cut off with TEV protease; source: Expi293F, purified (Protein A, TEV cleavage of Fc, SEC; monomer fractions); not shown: Fc (human), C-terminal, cleaved
T1 sequence (Q15116 24-167 C93S): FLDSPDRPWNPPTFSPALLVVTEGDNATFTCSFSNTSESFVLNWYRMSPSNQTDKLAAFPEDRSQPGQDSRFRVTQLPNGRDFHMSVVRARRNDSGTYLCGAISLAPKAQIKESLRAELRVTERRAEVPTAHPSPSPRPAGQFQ
Test: SPR; Carterra LSA; Fab from the ammonium sulfate precipitate of the culture supernatant immobilised on a NiHC200M chip; hPD-1 (1-1024 nM) or mPD-1-Fc (4-1024 nM) as analyte, fourfold dilution series, no regeneration; HBS-EP pH 7.4, 25 °C; medians over the spots of a construct, KD = koff/kon
Settings: one partner purified
Answers are plain numbers, in nM.

[[record]]
binder = "toripalimab Fab H.I101Y (Fab, V domains shown, heavy chain of Sm3 with this change; numbers count from the chain's first residue; as the light chain of Sm3; source: Brevibacillus, culture supernatant (ammonium sulfate precipitate); not shown: 6xHis, C-terminal, kept; 6xHN, C-terminal, kept) VH: QGQLVQSGAEVKKPGASVKVSCKASGYTFTDYEMHWVRQAPIHGLEWIGVIESETGGTAYNQKFKGRVTITADKSTSTAYMELSSLRSEDTAVYYCAREGYTTVATTYYWYFDVWGQGTTVTVSS VL: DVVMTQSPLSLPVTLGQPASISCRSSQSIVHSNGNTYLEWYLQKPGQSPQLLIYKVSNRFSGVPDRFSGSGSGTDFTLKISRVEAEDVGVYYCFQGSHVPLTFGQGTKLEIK"
measured_number = 54.5


The record that follows has no Kd shown yet.
So for toripalimab Fab L.L101K (Fab, V domains shown, as the heavy chain of Sm3; light chain of Sm3 with this change; numbers count from the chain's first residue; source: Brevibacillus, culture supernatant (ammonium sulfate precipitate); not shown: 6xHis, C-terminal, kept; 6xHN, C-terminal, kept) VH: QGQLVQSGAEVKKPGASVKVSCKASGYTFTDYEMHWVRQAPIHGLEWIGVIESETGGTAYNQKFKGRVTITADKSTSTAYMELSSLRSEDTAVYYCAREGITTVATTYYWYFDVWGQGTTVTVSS VL: DVVMTQSPLSLPVTLGQPASISCRSSQSIVHSNGNTYLEWYLQKPGQSPQLLIYKVSNRFSGVPDRFSGSGSGTDFTLKISRVEAEDVGVYYCFQGSHVPKTFGQGTKLEIK , the logged Kd turned out to be 492
